Reference for the values: the supplement of paper PMC10981050

Field: cell viability. Provide a value for each of the compounds that follow.
# Test system: OCI-AML2;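 further: after 48 h exposure read by CellTiter-Glo luminescence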
# assay.protocol: cell viability relative to vehicle control; higher = less cytotoxic
# condition: 10 µM; SRSF2 genotype: wt/wt
The figure you give is taken to be in %; do not add the unit.

Which cell viability is reported with OCI-AML2 for this entry: CC1(C)CC[C@]2(C(=O)O)[C@H](O)C[C@]3(C)C(=CC[C@@H]4[C@@]5(C)CC[C@H](O)[C@@](C)(C=O)[C@@H]5CC[C@]43C)[C@@H]2C1 [Quillaic acid] ?
96.8

Request: cell viability, test system OCI-AML2, entry NC(=O)c1ncn([C@@H]2O[C@H](CO)[C@@H](O)[C@H]2O)n1 [Ribavirin (Copegus)];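 further: after 48 h exposure read by CellTiter-Glo luminescence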
92.5

Report cell viability for Cc1oncc1C(=O)Nc1ccc(C(F)(F)F)cc1 [Leflunomide] tested on OCI-AML2.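 Further: after 48 h exposure read by CellTiter-Glo luminescence.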
85.1

Quick check: cell viability on OCI-AML2, item Cc1cc(O)c(-c2ccc([C@@H](C)CN(C)C)cc2)c2c1[nH]c(=O)c1sccc12 ?
7.84
